What melting point was measured for each of the following?

GET /value?item= CCCCC(OC(=O)c1ccccc1)P(=O)(O)OC(CCCCN)C(=O)N1CCCC1C(=O)O (configuration not stated) &field=melting point returns 158 to 170 °C

GET /value?item= `O=C(c1cccc2cc[nH]c12)N1CCN(c2ccc(F)cc2)CC1` &field=melting point returns 222 to 224 °C

GET /value?item= `COc1ccc(-c2c(Cl)c(CN3C(=O)CCC3=O)nc3sc4c(c23)CC[C@H](C(N)=O)C4)cc1` &field=melting point returns 282 to 283 °C

GET /value?item= `CCn1nnnc1C(C=CC=O)=C(c1ccc(F)cc1)c1ccc(F)cc1` &field=melting point returns 163 to 165 °C

GET /value?item= `O=C(O)CC1(CC(=O)O)c2ccccc2C(=O)c2ccccc21` &field=melting point returns 230 to 232 °C

GET /value?item= CCC(SC(C)=O)C(=O)NC(C)=O (configuration not stated) &field=melting point returns 59 to 60 °C

GET /value?item= `Fc1ccc(-c2nn3c(-c4ccccc4)cc(-c4ccccc4)nc3c2-c2ccncc2)cc1` &field=melting point returns 243 to 245 °C

GET /value?item= CC(C)NC(=O)CCC(O)c1ccccc1 (configuration not stated) &field=melting point returns 131 to 135 °C

GET /value?item= `O=C1CN=C(c2ccccc2Cl)c2ccsc2N1` &field=melting point returns 221 to 223 °C

GET /value?item= COc1ccc(C(O)CNCCN)cc1 (configuration not stated) &field=melting point returns 68 °C

GET /value?item= `Clc1ccc2nc(-c3ccccc3)n(CCCN3CCN(C(c4ccccc4)c4ccccc4)CC3)c2c1` &field=melting point returns 198 °C

GET /value?item= `COC(=O)[C@H](Cc1ccccc1)NC(=O)c1ccc(N)cc1` &field=melting point returns 145 to 146 °C

GET /value?item= CC1CCCCN1C(=O)c1nc(-c2ccccc2)nc2ccccc12 (configuration not stated) &field=melting point returns 150 °C

GET /value?item= `Nc1c(S(=O)(=O)C(F)(F)F)c(-c2ncon2)nn1-c1c(Cl)cc(C(F)(F)F)cc1Cl` &field=melting point returns 205 to 208 °C

GET /value?item= `Cc1nc(C)c(-c2ccnc(Nc3cccc([N+](=O)[O-])c3)n2)s1` &field=melting point returns 176 to 178 °C

GET /value?item= CN(C)CCN1C(=O)N2[C@H](c3cccc(O)c3)c3[nH]c4ccc(Br)cc4c3C[C@@]2(C)C1=O (racemic) &field=melting point returns 286 to 288 °C

GET /value?item= `O=S(=O)(CCS(=O)(=O)c1nc(-c2ccc(F)cc2)c(-c2ccc(F)cc2)[nH]1)c1nc(-c2ccc(F)cc2)c(-c2ccc(F)cc2)[nH]1` &field=melting point returns 246 to 248 °C

GET /value?item= `O=C1C2=C(CCCC2)C(=O)N1c1cc(OCC2=CCCSC2)c(Cl)cc1F` &field=melting point returns 134 to 137 °C

GET /value?item= `Nc1ncccc1OCc1ccccc1C(F)(F)F` &field=melting point returns 105 to 110 °C

GET /value?item= COc1cccc(NC(=O)NCc2cccc3c2C(=O)N(C2CCC(=O)NC2=O)C3=O)c1 (configuration not stated) &field=melting point returns 160 to 162 °C

GET /value?item= `O=c1n(CCCC2CCCCC2)nnn1-c1ccc(S(=O)(=O)Cl)cc1` &field=melting point returns 114 to 115 °C

GET /value?item= `CCCc1cccc(N2CC(=O)N(C)C(=O)N2)c1` &field=melting point returns 112 to 115 °C

GET /value?item= `Cc1cc2c(cc1F)c(C#N)c(-c1ccc(S(=O)(=O)N[C@H](C)C(F)(F)F)cn1)n2C1CCCC1` &field=melting point returns 191 to 193 °C

GET /value?item= `O=C(O)c1cccc(Oc2ccc(C(F)(F)F)cc2Cl)c1` &field=melting point returns 116 to 119 °C

GET /value?item= `COC(=O)C(C)(C)C(=O)Oc1ccc(C(=O)c2ccccc2)cc1` &field=melting point returns 121 to 122 °C

GET /value?item= `C#Cc1ccc2c(c1)C(=O)N(c1ccc3c(c1)C=C3)C2=O` &field=melting point returns 191 to 192 °C

GET /value?item= Cc1cc(Oc2ccc(S(C)(=O)=O)nc2)cc2cc(C3=NCC(CC(=O)NC[C@@H](C)O)S3)[nH]c12 (some centres not stated) &field=melting point returns 168 to 169 °C

GET /value?item= `O=C1NCc2ccsc21` &field=melting point returns 104 to 105 °C

GET /value?item= `COCc1cn(-c2cccc(C(F)(F)F)c2)nc(C(=O)OC)c1=O` &field=melting point returns 138 to 140 °C

GET /value?item= `CCCc1cc(-c2ccccc2)ccc1C(=O)O` &field=melting point returns 108 °C

GET /value?item= O=S1NC(CCCc2ccc3ccccc3c2)=NO1 (configuration not stated) &field=melting point returns 139 to 140 °C

GET /value?item= `CC(C)(N)CNc1ccnc2cc(Cl)ccc12` &field=melting point returns 169 to 171 °C

GET /value?item= Cc1ccccc1CC(=NC#N)NC(NC(=O)Cc1ccc(C#N)cc1)C(C)(C)C (configuration not stated) &field=melting point returns 199 to 201 °C

GET /value?item= `CC(C)Oc1cc(CCCOc2ncccc2CC(=O)O)n(Cc2ccc(F)cc2Cl)n1` &field=melting point returns 90 to 91 °C

GET /value?item= `COc1cc(-c2csc(C)n2)cc2oc(=O)c(C)c(C)c12` &field=melting point returns 149 to 150 °C

GET /value?item= `CCOC(OCC)c1cn2cccc(CO)c2n1` &field=melting point returns 87 to 89 °C

GET /value?item= `Clc1cc(Br)c2c(c1)COCO2` &field=melting point returns 108 to 110 °C
